Measured pIC50 of individual entries
Target of assay: Indoleamine 2,3-dioxygenase 2 (Homo sapiens)
Sequence (Q6ZQW0 whole entry): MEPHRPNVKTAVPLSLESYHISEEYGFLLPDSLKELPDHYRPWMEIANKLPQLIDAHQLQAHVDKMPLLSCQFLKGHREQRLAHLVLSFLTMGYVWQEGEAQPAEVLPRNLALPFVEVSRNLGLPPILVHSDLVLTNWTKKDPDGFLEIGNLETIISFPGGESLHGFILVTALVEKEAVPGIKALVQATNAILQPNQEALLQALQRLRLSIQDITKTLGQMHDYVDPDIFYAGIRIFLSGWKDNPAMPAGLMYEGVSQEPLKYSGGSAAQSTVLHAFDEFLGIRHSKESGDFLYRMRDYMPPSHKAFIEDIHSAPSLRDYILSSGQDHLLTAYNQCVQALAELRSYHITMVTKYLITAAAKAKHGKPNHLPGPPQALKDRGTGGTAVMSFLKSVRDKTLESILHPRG
Assay method text: Inhibition of human IDO2 transfected in human U87MG cells assessed as reduction in kynurenine production using L-tryptophan as substrate incubated with for 6 hrs
Assay type: cell-based
pIC50: −log10 of the molar value.

>  <Chem smiles>
O=C1c2cc(F)ccc2-n2c1nc1ccc(N3CCNCC3)cc1c2=O

>  <pIC50>
4.75

$$$$
>  <Chem smiles>
O=C1c2cc(F)ccc2-n2c1nc1ccc(N3CCOCC3)cc1c2=O

>  <pIC50>
4.69

$$$$
>  <Chem smiles>
CN1CCN(c2ccc3nc4n(c(=O)c3c2)-c2ccc(F)cc2C4=O)CC1

>  <pIC50>
4.10

$$$$
>  <Chem smiles>
CN(C)c1ccc2nc3n(c(=O)c2c1)-c1ccc(F)cc1C3=O

>  <pIC50>
4.04

$$$$
>  <Chem smiles>
O=C1c2cc(F)ccc2-n2c1nc1ccc(N3CCCCC3)cc1c2=O

>  <pIC50>
4.65

$$$$
>  <Chem smiles>
CN1CCN(c2ccc3nc4n(c(=O)c3c2)-c2ccccc2C4=O)CC1

>  <pIC50>
4.31

$$$$
